Biological target: Pyruvate kinase PKM (Homo sapiens) (UniProt P14618)
Sequence (P14618 whole entry, looked up, canonical isoform): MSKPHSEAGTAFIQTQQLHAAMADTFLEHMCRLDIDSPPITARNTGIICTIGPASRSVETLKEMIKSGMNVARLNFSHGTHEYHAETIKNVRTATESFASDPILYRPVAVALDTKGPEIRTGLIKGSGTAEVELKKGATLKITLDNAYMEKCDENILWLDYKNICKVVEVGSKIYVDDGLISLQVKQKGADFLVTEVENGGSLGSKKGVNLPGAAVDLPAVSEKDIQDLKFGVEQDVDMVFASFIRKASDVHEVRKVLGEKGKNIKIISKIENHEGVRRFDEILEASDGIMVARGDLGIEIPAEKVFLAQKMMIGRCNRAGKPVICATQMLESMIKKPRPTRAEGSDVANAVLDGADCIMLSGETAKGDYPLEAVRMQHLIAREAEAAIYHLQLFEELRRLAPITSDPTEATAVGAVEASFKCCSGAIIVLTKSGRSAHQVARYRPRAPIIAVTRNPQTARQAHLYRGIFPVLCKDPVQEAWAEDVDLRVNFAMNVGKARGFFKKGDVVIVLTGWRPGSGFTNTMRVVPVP
Assay: Confirmation Concentration-Response Assay for Activators of Human Muscle isoform 2 Pyruvate Kinase: for Probe SAR; also: nearly all actives have a fitted effect of over 60% in size
Conditions: purified PKM2, ATP generation, Kinase-Glo luminescence; series mostly up to 57.5 µM
Inconclusive results are not listed. Calls of active or inactive are those of the source. Calls follow the shape of the dose curve; as a rule, active = well fitted activation curve with a large enough effect; inconclusive = small, poorly fitted or top-dose-only effect; inactive = flat fitted curve, though single readings scatter.
Classes used: Y (active), N (inactive)

# Record smiles, Assigned class
data = [
    ("N#Cc1cccc(OC2=NS(=O)(=O)c3ccccc32)c1", "N"),
    ("COc1ccc(-c2sc(N)nc2-c2ccccc2)cc1", "N"),
    ("Cc1cc(NS(=O)(=O)c2ccc3c(c2)CCC(=O)N3)ccc1F", "Y"),
    ("Cc1ccc(NS(=O)(=O)c2cccc(Cl)c2)cc1C", "Y"),
    ("Cc1ccc(NS(=O)(=O)c2ccc3c(c2)oc(=O)n3C)cc1C", "Y"),
    ("O=C1c2ccccc2C(=O)N1c1cccc2cnccc12", "N"),
    ("O=S1(=O)N=C(Oc2ccc3ccccc3c2)c2ccccc21", "N"),
    ("O=C1c2ccccc2C(=O)N1c1cccc(Cl)c1", "N"),
    ("O=C1c2ccccc2C(=O)N1c1cccc2ncccc12", "N"),
    ("O=C1CCc2cc(S(=O)(=O)Nc3ccccc3Cl)ccc2N1", "Y"),
    ("Nc1cc(S(=O)(=O)N2CCN(S(=O)(=O)c3ccc4c(c3)OCCO4)CC2)ccn1", "Y"),
    ("COc1ccc(O)cc1", "N"),
    ("O=S1(=O)N=C(Oc2ccccc2C(F)(F)F)c2ccccc21", "N"),
    ("O=S1(=O)N=C(Oc2ccccc2-c2ccccc2)c2ccccc21", "N"),
    ("O=C1CCc2cc(S(=O)(=O)Nc3ccccc3-c3ccccc3)ccc2N1", "N"),
    ("COc1ccccc1NS(=O)(=O)c1ccc2c(c1)CCC(=O)N2", "Y"),
    ("COc1cc(N2C(=O)c3ccccc3C2=O)c2ncccc2c1", "N"),
    ("O=S1(=O)N=C(Oc2ccccc2F)c2ccccc21", "N"),
    ("COc1cc(F)c(S(=O)(=O)N2CCCN(S(=O)(=O)c3ccc(NC(C)=O)cc3)CC2)c(F)c1", "Y"),
    ("O=C1c2ccccc2C(=O)N1c1noc2ccccc12", "N"),
    ("Cc1ccc(C)c(O)c1", "N"),
    ("CC(=O)Nc1cccc(S(=O)(=O)N2CCN(S(=O)(=O)c3c(F)cccc3F)CC2)c1", "Y"),
    ("CCNc1cccc(S(=O)(=O)N2CCCN(S(=O)(=O)c3ccc4c(c3)OCCO4)CC2)c1", "Y"),
    ("Cc1ccc(NS(=O)(=O)c2cc3c(cc2Cl)NC(=O)CO3)cc1C", "Y"),
    ("Nc1cccc(S(=O)(=O)N2CCN(S(=O)(=O)c3ccc4c(c3)OCCO4)CC2)c1", "Y"),
    ("Cc1ccc(NC(=O)c2ccc3c(c2)CCC(=O)N3)cc1C", "N"),
    ("O=C1CCc2cc(S(=O)(=O)Nc3ccncc3)ccc2N1", "N"),
]

----------
Target: Pyruvate kinase PKM (Homo sapiens)
Experiment: Confirmation Concentration-Response Assay for Activators of Human Muscle isoform 2 Pyruvate Kinase: for Probe SAR; also: nearly all actives have a fitted effect of over 60% in size
Settings: purified PKM2, ATP generation, Kinase-Glo luminescence; series mostly up to 57.5 µM
Records with an inconclusive call do not appear. Active and inactive are the calls of the source. Calls follow the shape of the dose curve; as a rule, active = well fitted activation curve with a large enough effect; inconclusive = small, poorly fitted or top-dose-only effect; inactive = flat fitted curve, though single readings scatter.
Outcomes: t (active), f (inactive)

# Record smiles, Assigned class
records = [
    ("O=S1(=O)N=C(Oc2cccc(Br)c2)c2ccccc21", "f"),
    ("COc1ccc(OC2=NS(=O)(=O)c3ccccc32)cc1", "f"),
    ("O=C1CCc2cc(S(=O)(=O)Nc3ccc4ccccc4c3)ccc2N1", "t"),
    ("Cc1ccc(-c2nc3ccccn3c2Nc2ccccc2C)o1", "f"),
    ("O=S1(=O)N=C(Oc2ccc(Cl)cc2)c2ccccc21", "f"),
    ("O=C1CCc2cc(S(=O)(=O)Nc3ccc4ncccc4c3)ccc2N1", "f"),
    ("Cc1ccc(Nc2c(-c3ccc(C)s3)nc3ccccn23)cc1", "t"),
    ("O=S1(=O)N=C(Oc2cccc(Cl)c2)c2ccccc21", "f"),
    ("Cc1ccc(NS(=O)(=O)c2ccc3c(c2)n(C)c(=O)n3C)cc1C", "t"),
    ("O=C1CCc2cc(S(=O)(=O)Nc3ccc(-c4ccccc4)cc3)ccc2N1", "f"),
    ("Cc1cccc(OC2=NS(=O)(=O)c3ccccc32)c1", "f"),
    ("O=S1(=O)N=C(Oc2ccccc2)c2ccccc21", "f"),
    ("O=C1CCc2cc(S(=O)(=O)Nc3cccc(F)c3)ccc2N1", "t"),
]
